Kindly state cell viability for each of the entries shown.
tested on: MARIMO; experiment: cell viability relative to vehicle control; higher = less cytotoxic; details: 10 µM; SRSF2 genotype: SRSF2 P95H/wt;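 further: after 48 h exposure read by CellTiter-Glo luminescence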
Structures can show the parent of a compound that is named as a salt.
// note: answer is a bare numeric in %

Exercise: Answer briefly: cell viability recorded on MARIMO for CN1CCN(c2ccc3nc(-c4c(N)c5c(F)cccc5[nH]c4=O)[nH]c3c2)CC1 [Dovitinib (TKI-258, CHIR-258)]
Solution: 22.1

Exercise: GET cell viability where system = MARIMO and item = CCCOc1ccc2c(c1)CC[C@@H]1[C@@H]2CC[C@]2(C)[C@@H](OC)CC[C@@H]12
Solution: 76.6

Exercise: Report value: cell viability, system: MARIMO, compound: CCS(=O)(=O)N1CC(CC#N)(n2cc(-c3ncnc4[nH]ccc34)cn2)C1
Solution: 111

Exercise: Tell me its cell viability on MARIMO: C[C@@H](O[C@H]1OCCN(Cc2nn(P(=O)(O)O)c(=O)[nH]2)[C@H]1c1ccc(F)cc1)c1cc(C(F)(F)F)cc(C(F)(F)F)c1 [Fosaprepitant dimeglumine salt]
Solution: 53.1

----------
system: K562; test: cell viability relative to vehicle control; higher = less cytotoxic; settings: 10 µM; SRSF2 genotype: SRSF2 wt/wt
Structures can show the parent of a compound that is named as a salt.
I'd appreciate it if you marked entries Condition met when cell viability is lower than 90% and Condition not met when it is not.

Exercise: Is cell viability strictly under 90% for the entry CC(C)(C)[N+]([O-])=Cc1ccc(S(=O)(=O)O)cc1S(=O)(=O)O [NXY-059 (Disufenton sodium)] ?
Solution: Condition not met

Exercise: For this molecule, is cell viability lower than 90%? CC(C(=O)O)c1cccc(Oc2ccccc2)c1 (stereo not drawn) [Fenoprofen calcium]
Solution: Condition met

Exercise: Identify whether the molecule Cc1cc(Nc2cc(N3CCN(C)CC3)nc(Sc3ccc(NC(=O)C4CC4)cc3)n2)n[nH]1 [VX-680 (MK-0457, Tozasertib)] records cell viability below 90%.
Solution: Condition met

Exercise: Just wondering, is cell viability of Cc1ccc(S(=O)(=O)n2c(N)nc3ccccc32)cc1 below 90%?
Solution: Condition not met

Exercise: # strict comparison: is reported cell viability < 90%? input = Clc1cccc(Cl)c1NC1=NCCN1 [Clonidine hydrochloride (Catapres)]
Solution: Condition not met

Exercise: is_below(cell viability, 90%) for O=c1[nH]c(=O)n(C2CC(O)C(CO)O2)cc1I (stereo not drawn) [Idoxuridin] ?
Solution: Condition met

Exercise: API: query returns whether the molecule falls strictly under 90% in cell viability. Query: COc1cc(C(=O)NS(=O)(=O)c2ccccc2C)ccc1Cc1cn(C)c2ccc(NC(=O)OC3CCCC3)cc12 [Zafirlukast (Accolate)]
Solution: Condition not met

Exercise: I wonder whether CCc1cc(Nc2nccc(-c3c(-c4ccc(OC)c(C(=O)Nc5c(F)cccc5F)c4)nc4ccccn34)n2)c(OC)cc1N1CCC(N2CCN(S(C)(=O)=O)CC2)CC1 has cell viability below 90%. Can you tell?
Solution: Condition not met

----------
test system: OCI-AML2; assay: cell viability relative to vehicle control; higher = less cytotoxic; settings: 10 µM; SRSF2 genotype: P95H/wt
Parameter measured: cell viability (%)
Lab book: enter the figure in %, no units written.

Exercise: For the compound C=CCc1ccc(O)c(-c2cc(CC=C)ccc2O)c1 , give its measured cell viability value.
Solution: 86.2

Exercise: Tell me measured cell viability for C[C@@H](Oc1ccc2[nH]nc(/C=C/c3cnn(CCO)c3)c2c1)c1c(Cl)cncc1Cl please.
Solution: 0.48

Exercise: Dear colleague, please send me the reported cell viability for CCOc1nc2cccc(C(=O)O)c2n1Cc1ccc(-c2ccccc2-c2nnn[nH]2)cc1 when you can.
Solution: 83.1

Exercise: In one line, give reported cell viability of the entry CN[C@H]1C(=O)N[C@@H]2Cc3ccc(cc3)Oc3cc4cc(c3O[C@@H]3O[C@H](C(=O)O)[C@@H](O)[C@H](O)[C@H]3NC(=O)CCCCCCCCC(C)C)Oc3ccc(cc3Cl)[C@@H](O)[C@@H]3NC(=O)[C@H](NC(=O)[C@@H]4NC(=O)[C@@H](NC2=O)c2cc(cc(O)c2Cl)Oc2cc1ccc2O)c1ccc(O)c(c1)-c1c(O[C@H]2O[C@H](CO)[C@@H](O)[C@H](O)[C@@H]2O)cc(O)cc1[C@@H](C(=O)NCCCN(C)C)NC3=O .
Solution: 86.5

Exercise: Name the recorded cell viability of the item CCOC(=O)c1ccc(N2NC(=O)C(=Cc3ccc([N+](=O)[O-])o3)C2=O)cc1 in your answer.
Solution: 102

Exercise: Read the entry O=C(NCC1(c2nc(-c3ccccc3)cs2)CCOCC1)c1cccc(-c2noc(C(F)(F)F)n2)c1 and write its reported cell viability.
Solution: 75.7
